Sourced from paper PMC6522656

System: mouse fibroblast (NIH/3T3)
procedure details: MTT cytotoxicity assay, NIH/3T3
Format: cell-based
assay setup: NIH3T3, 72 h, read-out: IC50 3T3 Normal
outcome measure: IC50

smiles_str=COc1ccc2cc(C=C3C(=O)Nc4ccccc43)c(Cl)nc2c1 result="> 100 µM"
smiles_str=O=C1Nc2ccccc2C1=Cc1cc2ccc(Cl)cc2nc1Cl result="> 100 µM"
smiles_str=O=C1Nc2ccccc2C1=Cc1cc2cc(Cl)ccc2nc1Cl result="> 100 µM"
smiles_str=O=C1Nc2ccccc2C1=Cc1cc2cc(Br)ccc2nc1Cl result="> 100 µM"
smiles_str=COc1cc2cc(C=C3C(=O)Nc4ccccc43)c(Cl)nc2cc1OC result="> 100 µM"
smiles_str=Cc1cc2cc(C=C3C(=O)Nc4ccccc43)c(Cl)nc2cc1C result="> 100 µM"

* * *

Tested on: DU-145 cells
procedure details: MTT cytotoxicity assay, DU-145
Type: cell-based
assay setup: Homo sapiens, DU-145, 72 h, read-out: IC50 DU-145 Prostate
Let's look at some compounds and their measured IC50.
outcome measure: IC50

smiles_str=COc1cccc2cc(C=C3C(=O)Nc4ccccc43)c(Cl)nc12 result="11 µM"
smiles_str=O=C1Nc2ccccc2C1=Cc1cc2ccc3ccccc3c2nc1Cl result="95.7 µM"
smiles_str=Cc1cc2cc(C=C3C(=O)Nc4ccccc43)c(Cl)nc2cc1C result="> 100 µM"
smiles_str=O=C1Nc2ccccc2C1=Cc1cc2ccccc2nc1Cl result="77.5 µM"
smiles_str=COc1cc2cc(C=C3C(=O)Nc4ccccc43)c(Cl)nc2cc1OC result="> 100 µM"
smiles_str=O=C1Nc2ccccc2C1=Cc1cc2ccc(Cl)cc2nc1Cl result="54.9 µM"
smiles_str=O=C1Nc2ccccc2C1=Cc1cc2cc(Br)ccc2nc1Cl result="> 100 µM"
smiles_str=Cc1ccc2nc(Cl)c(C=C3C(=O)Nc4ccccc43)cc2c1 result="> 100 µM"
smiles_str=COc1ccc2cc(C=C3C(=O)Nc4ccccc43)c(Cl)nc2c1 result="> 100 µM"
smiles_str=O=C1Nc2ccccc2C1=Cc1cc2cc(Cl)ccc2nc1Cl result="91.2 µM"
smiles_str=COc1ccc2nc(Cl)c(C=C3C(=O)Nc4ccccc43)cc2c1 result="47.2 µM"
